Hi there, I'd appreciate the recorded GI50 for every entry that follows.
tested on: XF498; assay: NCI tumour cell line growth inhibition, 48 h
Activity calls are given as the source filed them. Cut-off read from the data, not from the text of the source: active = GI50 up to about 1.1 µM and inactive = higher.

Please review the following examples before continuing.
compound	recorded.metric	result
O=C(/C=C/c1ccccc1O)C(c1ccccc1)c1ccccc1	GI50	> 100 µM (inactive)
C=C1C(=O)OC2C1CCC(C)C1C=CC(=O)C12C (stereo not drawn)	GI50	3.29 µM (inactive)

From here, focus on the item given below.
Req: Consider the compound COc1ccc2c(c1)CCc1c(C(C)=O)c3ccccc3n1C2 and give its measured GI50.
Resp: 12.9 µM (inactive)

* * *

system: HOP-62; assay: NCI tumour cell line growth inhibition, 48 h
Active and inactive are the calls of the source. Cut-off read from the data, not from the text of the source: active = GI50 up to about 1.1 µM and inactive = higher.
recorded.metric: GI50

Worked cases, answers included:
compound	result
N=c1ccn2c(n1)OC1C(OP(=O)(O)O)C(CO)OC12 (stereo not given)	1.21 µM (inactive)
C=C(NC(=O)C(=C)NC(=O)c1csc(C2=NC3c4csc(n4)C4NC(=O)c5csc(n5)C(C(C)(O)C(C)O)NC(=O)C5CSC(=N5)/C(=C/C)NC(=O)C(C(C)O)NC(=O)c5csc(n5)C3(CC2)NC(=O)C(C)NC(=O)C(=C)NC(=O)C(=C)NC(=O)C(C(C)C)NC2C=Cc3c(C(C)O)cc(nc3C2O)C(=O)OC4C)n1)C(N)=O (stereo not given)	19.6 µM (inactive)
Cc1ccc(/N=N/C(=N\c2ccc(Cl)cc2)c2ccc(N(CCC#N)CCC#N)cc2)cc1	58.3 µM (inactive)
COc1ccc(C2Oc3cc(OC)c(O)cc3[C@@H]2C)cc1 (stereo not given in full)	> 100 µM (inactive)

Batch lookup, GI50 per entry.
1. O=C(Nc1cc(Cl)ccc1Cl)c1cc2cccc(Br)c2oc1=O
2. Nc1c(C(=O)c2ccccc2)nnc2ccccc12
3. O=C(N/N=C(/c1ccccc1)C(F)(F)F)c1ccncc1

Resp:
1. 47.2 µM (inactive)
2. 24.5 µM (inactive)
3. > 100 µM (inactive)

Batch: GI50 for all items listed.
1. O=P1(O)c2ccccc2Nc2cc(C(F)(F)F)ccc21
2. O=P(Nc1cccc(Cl)c1)(Oc1ccccc1)N(CCCl)CCCl (stereo not given)
3. Cc1nc2ccc(Cl)cc2c(-n2ccnc2)c1CCn1ccnc1

Resp:
1. > 100 µM (inactive)
2. 16.6 µM (inactive)
3. 33.3 µM (inactive)
